B1: SPACA3 (parent)
chain: FTSGFNAAALDYEADGSTNNGIFQ

- Variants of: B1
- method_notes: protein stability index of a GFP-peptide fusion (GPS, HEK-293T) (PSI 1-6); higher = more stable;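 note: lentivirally expressed fusions sorted by FACS into six bins by GFP to DsRed ratio, PSI derived from sequencing read proportions per bin multiplied by bin number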
- experimental_parameters: c terminus: a fixed tail appended
Would you kindly list protein stability index for each of these variants?
Answer field: number only, no words.

INPUT: Can you share its protein stability index? I mean this variant: FESGFNAAALDYEADGSTNNGIFQ [T2E]
OUTPUT: 4.66

INPUT: Can you share its protein stability index? I mean this variant: FTSGFNAAALDYEADFSTNNGIFQ [G16F]
OUTPUT: 1.96

INPUT: Can you share its protein stability index? I mean this variant: FTSGFNAAALDYEADGSTNMGIFQ [N20M]
OUTPUT: 1.87

INPUT: Can you share its protein stability index? I mean this variant: FTSGFNAAALDYEADGSTNNHIFQ [G21H]
OUTPUT: 1.98

INPUT: Can you share its protein stability index? I mean this variant: FTSGFNAAALDYEADGSGNNGIFQ [T18G]
OUTPUT: 2.31

INPUT: Can you share its protein stability index? I mean this variant: FTSGFNAAALDYEADGSTNNYIFQ [G21Y]
OUTPUT: 1.75

INPUT: Can you share its protein stability index? I mean this variant: FTPGFNAAALDYEADGSTNNGIFQ [S3P]
OUTPUT: 2.29

INPUT: Can you share its protein stability index? I mean this variant: FTSGFNAAQLDYEADGSTNNGIFQ [A9Q]
OUTPUT: 2.97

INPUT: Can you share its protein stability index? I mean this variant: FTSGFNAAALDYKADGSTNNGIFQ [E13K]
OUTPUT: 2.08

INPUT: Can you share its protein stability index? I mean this variant: FTSGFNAAALDYEADGSTNNGIFM [Q24M]
OUTPUT: 1.46

INPUT: Can you share its protein stability index? I mean this variant: FTSGFNAAALDYEPDGSTNNGIFQ [A14P]
OUTPUT: 2

INPUT: Can you share its protein stability index? I mean this variant: FTSGFNAAALDYEADGSTNTGIFQ [N20T]
OUTPUT: 1.93

INPUT: Can you share its protein stability index? I mean this variant: FTSGFWAAALDYEADGSTNNGIFQ [N6W]
OUTPUT: 3.02

INPUT: Can you share its protein stability index? I mean this variant: FTSGFNAAALDYEADGFTNNGIFQ [S17F]
OUTPUT: 1.74

INPUT: Can you share its protein stability index? I mean this variant: FTSGFNGAALDYEADGSTNNGIFQ [A7G]
OUTPUT: 2.13

INPUT: Can you share its protein stability index? I mean this variant: FTSGFNAAALDYEADGSTNNGLFQ [I22L]
OUTPUT: 1.74

INPUT: Can you share its protein stability index? I mean this variant: FTSGFPAAALDYEADGSTNNGIFQ [N6P]
OUTPUT: 1.61

INPUT: Can you share its protein stability index? I mean this variant: FTSGFNAAALDYCADGSTNNGIFQ [E13C]
OUTPUT: 1.87

INPUT: Can you share its protein stability index? I mean this variant: FTSGFNAAALDYEADGSTNNGIFC [Q24C]
OUTPUT: 1.93

INPUT: Can you share its protein stability index? I mean this variant: FTSGFNAAALDMEADGSTNNGIFQ [Y12M]
OUTPUT: 1.83

INPUT: Can you share its protein stability index? I mean this variant: FTSGFNTAALDYEADGSTNNGIFQ [A7T]
OUTPUT: 1.83

INPUT: Can you share its protein stability index? I mean this variant: FTSGFNAAALDYEADGSKNNGIFQ [T18K]
OUTPUT: 2.78

INPUT: Can you share its protein stability index? I mean this variant: FTSGFNAAALDYEADGSTVNGIFQ [N19V]
OUTPUT: 1.76

INPUT: Can you share its protein stability index? I mean this variant: FTSGFNAAAPDYEADGSTNNGIFQ [L10P]
OUTPUT: 2.25

INPUT: Can you share its protein stability index? I mean this variant: FTSGFAAAALDYEADGSTNNGIFQ [N6A]
OUTPUT: 1.84

INPUT: Can you share its protein stability index? I mean this variant: FTSGFNAAALDYEADGSTNWGIFQ [N20W]
OUTPUT: 1.43

INPUT: Can you share its protein stability index? I mean this variant: FTSGFNAAALDYEADGSTNNTIFQ [G21T]
OUTPUT: 2.02

INPUT: Can you share its protein stability index? I mean this variant: FTSGFNAHALDYEADGSTNNGIFQ [A8H]
OUTPUT: 1.85

INPUT: Can you share its protein stability index? I mean this variant: FTSGFNAAAHDYEADGSTNNGIFQ [L10H]
OUTPUT: 2.32

INPUT: Can you share its protein stability index? I mean this variant: FTSGFNAAALDYEADGSTNDGIFQ [N20D]
OUTPUT: 2.51

INPUT: Can you share its protein stability index? I mean this variant: HTSGFNAAALDYEADGSTNNGIFQ [F1H]
OUTPUT: 4.48

INPUT: Can you share its protein stability index? I mean this variant: FTSGFNAAALDYEADGSTNLGIFQ [N20L]
OUTPUT: 2.04

INPUT: Can you share its protein stability index? I mean this variant: TTSGFNAAALDYEADGSTNNGIFQ [F1T]
OUTPUT: 4.63

INPUT: Can you share its protein stability index? I mean this variant: FTSGFNAAALDYEKDGSTNNGIFQ [A14K]
OUTPUT: 2.5

INPUT: Can you share its protein stability index? I mean this variant: FTSGFNAAALDYEADGSSNNGIFQ [T18S]
OUTPUT: 2.08

INPUT: Can you share its protein stability index? I mean this variant: FTHGFNAAALDYEADGSTNNGIFQ [S3H]
OUTPUT: 2.14

INPUT: Can you share its protein stability index? I mean this variant: FTSGQNAAALDYEADGSTNNGIFQ [F5Q]
OUTPUT: 4.12

INPUT: Can you share its protein stability index? I mean this variant: FTSGFNAADLDYEADGSTNNGIFQ [A9D]
OUTPUT: 2.42

INPUT: Can you share its protein stability index? I mean this variant: FTSGFNAAALDYEAGGSTNNGIFQ [D15G]
OUTPUT: 1.68

INPUT: Can you share its protein stability index? I mean this variant: FTSGFNAAALDYEADGRTNNGIFQ [S17R]
OUTPUT: 1.95

INPUT: Can you share its protein stability index? I mean this variant: FTSGFNAAALDYEADGSTNNGIFL [Q24L]
OUTPUT: 1.71

INPUT: Can you share its protein stability index? I mean this variant: FTSGFNAAALDYEADGWTNNGIFQ [S17W]
OUTPUT: 2.1

INPUT: Can you share its protein stability index? I mean this variant: FTSGFNRAALDYEADGSTNNGIFQ [A7R]
OUTPUT: 2

INPUT: Can you share its protein stability index? I mean this variant: FTSGFNAAALDYEADGSTNNFIFQ [G21F]
OUTPUT: 1.8

INPUT: Can you share its protein stability index? I mean this variant: FTSGFNAAALDYEADGSTNNLIFQ [G21L]
OUTPUT: 2.06

INPUT: Can you share its protein stability index? I mean this variant: FTWGFNAAALDYEADGSTNNGIFQ [S3W]
OUTPUT: 2.26

INPUT: Can you share its protein stability index? I mean this variant: FTSGFNAAALDYEADGSTNNGYFQ [I22Y]
OUTPUT: 2.06

INPUT: Can you share its protein stability index? I mean this variant: FTSGFNAAALDYEADGSLNNGIFQ [T18L]
OUTPUT: 2.07

INPUT: Can you share its protein stability index? I mean this variant: FTSHFNAAALDYEADGSTNNGIFQ [G4H]
OUTPUT: 2.59

INPUT: Can you share its protein stability index? I mean this variant: FTSGFNAAALDYEADGSTNNGMFQ [I22M]
OUTPUT: 2.5

INPUT: Can you share its protein stability index? I mean this variant: FTSGFNAAALIYEADGSTNNGIFQ [D11I]
OUTPUT: 2.27

INPUT: Can you share its protein stability index? I mean this variant: FTSGFNANALDYEADGSTNNGIFQ [A8N]
OUTPUT: 2.35

INPUT: Can you share its protein stability index? I mean this variant: FTSGFNAAALDYEADGSTNNGICQ [F23C]
OUTPUT: 1.9

INPUT: Can you share its protein stability index? I mean this variant: FTSGFNAAALNYEADGSTNNGIFQ [D11N]
OUTPUT: 1.57

INPUT: Can you share its protein stability index? I mean this variant: FTSGFNIAALDYEADGSTNNGIFQ [A7I]
OUTPUT: 2.13

INPUT: Can you share its protein stability index? I mean this variant: FTSGFNAAALDYEADGSENNGIFQ [T18E]
OUTPUT: 2.27

INPUT: Can you share its protein stability index? I mean this variant: FTSGFNAAALDYEAFGSTNNGIFQ [D15F]
OUTPUT: 2.42

INPUT: Can you share its protein stability index? I mean this variant: FTSGFNAAALDYEADGNTNNGIFQ [S17N]
OUTPUT: 2.21

INPUT: Can you share its protein stability index? I mean this variant: FTFGFNAAALDYEADGSTNNGIFQ [S3F]
OUTPUT: 2.12

INPUT: Can you share its protein stability index? I mean this variant: FTSGFNAAALDYEADGSDNNGIFQ [T18D]
OUTPUT: 2.06

INPUT: Can you share its protein stability index? I mean this variant: FTSGFNALALDYEADGSTNNGIFQ [A8L]
OUTPUT: 1.73

INPUT: Can you share its protein stability index? I mean this variant: FTSGFNAAALDYYADGSTNNGIFQ [E13Y]
OUTPUT: 1.61

INPUT: Can you share its protein stability index? I mean this variant: FTSRFNAAALDYEADGSTNNGIFQ [G4R]
OUTPUT: 1.87

INPUT: Can you share its protein stability index? I mean this variant: FTSGFNAAALDYEADGSHNNGIFQ [T18H]
OUTPUT: 1.83

INPUT: Can you share its protein stability index? I mean this variant: FTSGFNAAALDYETDGSTNNGIFQ [A14T]
OUTPUT: 1.96

INPUT: Can you share its protein stability index? I mean this variant: FTSGFNAAALDYEADRSTNNGIFQ [G16R]
OUTPUT: 1.87

INPUT: Can you share its protein stability index? I mean this variant: FTSGFNAAALDYEADGSTNNGIPQ [F23P]
OUTPUT: 2.42

INPUT: Can you share its protein stability index? I mean this variant: FTSGFNAAALDYEADGSTNNGIMQ [F23M]
OUTPUT: 2.55

INPUT: Can you share its protein stability index? I mean this variant: FTSGFNAAALSYEADGSTNNGIFQ [D11S]
OUTPUT: 1.5
